system: Spirodela polyrhiza; assay: Bleaching herbicidal activity in Spirodela polyrhiza fronds cultured in compound-containing in medium assessed as chlorophyll inhibition at 10 ug/ml after 7 days; assay type: functional; conditions: 168 h
Tag: Satisfied if measured inhibition at 10 µg/mL is not below 80%, Not satisfied if it is.

Q. Entry Cc1cc(-c2cccc(C(F)(F)F)c2)c(Oc2ccccc2C)nn1 : is its inhibition at 10 µg/mL no less than 80%?
A. Not satisfied

Q. Dear colleague, could you confirm whether O=C(Nc1ccc(F)cc1F)c1cccnc1Oc1cccc(C(F)(F)F)c1 [DIFLUFENICAN] has inhibition at 10 µg/mL at or above 80%?
A. Satisfied

Q. Is the recorded value of inhibition at 10 µg/mL equal to or greater than 80% for this molecule? Cc1cccc(COc2nnc(C)cc2-c2cccc(C(F)(F)F)c2)c1
A. Not satisfied

Q. Could you verify whether the entry Cc1cc(-c2cccc(C(F)(F)F)c2)c(Oc2cccc(C(F)(F)F)c2)nn1 shows inhibition at 10 µg/mL of no less than 80%?
A. Satisfied

Q. Check the entry Cc1cc(-c2cccc(C(F)(F)F)c2)c(Oc2ccccc2C(F)(F)F)nn1 : does inhibition at 10 µg/mL equal or exceed 80%?
A. Not satisfied

Q. Does inhibition at 10 µg/mL meet or surpass 80% for COc1ccc(COc2nnc(C)cc2-c2cccc(C(F)(F)F)c2)cc1 ?
A. Not satisfied

Q. Please tell me: is the molecule Cc1cc(-c2cccc(C(F)(F)F)c2)c(OCc2ccccc2Br)nn1 at or over 80% in terms of inhibition at 10 µg/mL?
A. Satisfied

Q. Could you verify whether the entry Cc1cc(-c2cccc(C(F)(F)F)c2)c(OCc2ccc(F)cc2)nn1 shows inhibition at 10 µg/mL of no less than 80%?
A. Satisfied

Q. Can Cc1cc(-c2cccc(C(F)(F)F)c2)c(Oc2ccccc2Cl)nn1 be said to have inhibition at 10 µg/mL at or above 80%?
A. Not satisfied

Q. Decide: is the reported value of inhibition at 10 µg/mL for Cc1cc(-c2cccc(C(F)(F)F)c2)c(Oc2cc(F)cc(F)c2)nn1 equal to or greater than 80%?
A. Satisfied

Q. Item Cc1cc(-c2cccc(C(F)(F)F)c2)c(Oc2ccc(Cl)cc2)nn1 with inhibition at 10 µg/mL of 80% or above?
A. Satisfied

Q. Could you please find out whether Cc1cc(-c2cccc(C(F)(F)F)c2)c(OCc2ccc(N(C)C)cc2)nn1 has inhibition at 10 µg/mL that meets 80% or exceeds it?
A. Satisfied

Q. Record Cc1cc(-c2cccc(C(F)(F)F)c2)c(OCc2ccccc2C(F)(F)F)nn1 ; criterion: inhibition at 10 µg/mL no lower than 80%. Met?
A. Not satisfied

Q. Determine whether measured inhibition at 10 µg/mL meets or exceeds 80% for Cc1ccc(Oc2nnc(C)cc2-c2cccc(C(F)(F)F)c2)c(C)c1
A. Not satisfied

Q. Does inhibition at 10 µg/mL meet or surpass 80% for Cc1cc(-c2cccc(C(F)(F)F)c2)c(OCc2ccccc2Cl)nn1 ?
A. Satisfied

Q. Check this molecule for inhibition at 10 µg/mL at or above 80%: Cc1cc(-c2cccc(C(F)(F)F)c2)c(OCc2ccc(Cl)cc2Cl)nn1
A. Not satisfied

Q. Could you verify whether the entry Cc1cc(-c2cccc(C(F)(F)F)c2)c(OCc2cccc(F)c2)nn1 shows inhibition at 10 µg/mL of no less than 80%?
A. Satisfied

Q. Test whether the molecule Cc1cc(-c2cccc(C(F)(F)F)c2)c(Oc2ccc(Br)cc2)nn1 records inhibition at 10 µg/mL of 80% or higher.
A. Satisfied

Q. For this molecule, is measured inhibition at 10 µg/mL 80% or higher? Cc1cc(-c2cccc(C(F)(F)F)c2)c(Oc2ccccc2-c2ccccc2)nn1
A. Not satisfied

Q. Threshold query (inhibition at 10 µg/mL >= 80%) on Cc1cc(C)cc(COc2nnc(C)cc2-c2cccc(C(F)(F)F)c2)c1
A. Not satisfied

Q. Decide: inhibition at 10 µg/mL of Cc1cc(-c2cccc(C(F)(F)F)c2)c(OCc2ccc(Cl)cc2)nn1 >= 80%?
A. Not satisfied

Q. Is inhibition at 10 µg/mL at least 80%? Consider Cc1cc(-c2cccc(C(F)(F)F)c2)c(Oc2c(C)cccc2C)nn1
A. Not satisfied

Q. Does the reported inhibition at 10 µg/mL for COc1ccccc1COc1nnc(C)cc1-c1cccc(C(F)(F)F)c1 fall at or above the 80% mark?
A. Not satisfied

Q. Answer whether inhibition at 10 µg/mL of Cc1cc(-c2cccc(C(F)(F)F)c2)c(OCc2ccc(Br)cc2)nn1 is greater than or equal to 80%.
A. Not satisfied

Q. Is inhibition at 10 µg/mL for Cc1ccc(Oc2nnc(C)cc2-c2cccc(C(F)(F)F)c2)cc1 at or above 80%?
A. Satisfied

Q. Assess whether reported inhibition at 10 µg/mL for Cc1ccc(COc2nnc(C)cc2-c2cccc(C(F)(F)F)c2)cc1 sits at 80% or higher.
A. Not satisfied

Q. Check if inhibition at 10 µg/mL >= 80% (inclusive). Item: Cc1cccc(Oc2nnc(C)cc2-c2cccc(C(F)(F)F)c2)c1
A. Satisfied

Q. Determine whether measured inhibition at 10 µg/mL meets or exceeds 80% for COc1cccc(COc2nnc(C)cc2-c2cccc(C(F)(F)F)c2)c1
A. Not satisfied

Q. Please tell me: is the molecule Cc1cc(-c2cccc(C(F)(F)F)c2)c(Oc2ccc(Cl)c(Cl)c2)nn1 at or over 80% in terms of inhibition at 10 µg/mL?
A. Satisfied

Q. Please check the record Cc1cc(-c2cccc(C(F)(F)F)c2)c(Oc2ccccc2F)nn1 and state if its inhibition at 10 µg/mL is at or above 80%.
A. Not satisfied

Q. Given the entry Cc1cc(-c2cccc(C(F)(F)F)c2)c(Oc2ccc(C(C)(C)C)cc2)nn1 , answer whether its inhibition at 10 µg/mL meets or surpasses 80%.
A. Not satisfied

Q. Record Cc1cc(-c2cccc(C(F)(F)F)c2)c(OCc2cccc(Br)c2)nn1 ; criterion: inhibition at 10 µg/mL no lower than 80%. Met?
A. Satisfied

Q. // inclusive: inhibition at 10 µg/mL at least 80%? input: Cc1cc(-c2cccc(C(F)(F)F)c2)c(Oc2ccc(F)cc2)nn1
A. Satisfied

Q. // inclusive: inhibition at 10 µg/mL at least 80%? input: Cc1cc(-c2cccc(C(F)(F)F)c2)c(OCc2ccccc2C)nn1
A. Satisfied

Q. Please tell me: is the molecule Cc1cc(-c2cccc(C(F)(F)F)c2)c(Oc2ccccc2)nn1 at or over 80% in terms of inhibition at 10 µg/mL?
A. Not satisfied

Q. Evaluate Cc1cc(-c2cccc(C(F)(F)F)c2)c(OCc2c(Cl)cccc2Cl)nn1 : inhibition at 10 µg/mL at minimum 80%?
A. Not satisfied
